Assay: xn = mol fraction of the nth substance listed, in the solute-free solvent
Conditions: 323.15 K; x2 = 0.1
Classification field: enter Condition met for solubility (g/100 g solution) values not below 0.2, Condition not met for values below it.

Here's what some known entries look like.
MOLECULE: S=c1[nH]ncs1 + CCCO + O
GROUP LABEL: Condition met
--
MOLECULE: CC(N)C(=O)O (centres undefined) + O + CC(C)O
GROUP LABEL: Condition not met
--
MOLECULE: CC(N)C(=O)O (centres undefined) + O + CCCO
GROUP LABEL: Condition not met
--
MOLECULE: S=c1[nH]ncs1 + CO + O
GROUP LABEL: Condition met
--
MOLECULE: CC(N)C(=O)O (centres undefined) + O + CO
GROUP LABEL: Condition not met

Q: Decide: is the reported value of solubility (g/100 g solution) for S=c1[nH]ncs1 + CCO + O equal to or greater than 0.2?
Ans: Condition met

Q: API: above_or_equal(metric=solubility (g/100 g solution), cutoff=0.2) for item S=c1[nH]ncs1 + CC(C)=O + O
Ans: Condition met

Q: For this molecule, is measured solubility (g/100 g solution) 0.2 or higher? CC(N)C(=O)O (centres undefined) + O + CCO
Ans: Condition not met

Q: Is solubility (g/100 g solution) at least 0.2? Consider CC(N)C(=O)O (centres undefined) + O + CC(C)=O
Ans: Condition not met

---

Each entry below lists one item and its recorded solubility (g/100 g solution) value.
Assay: xn = mol fraction of the nth substance listed, in the solute-free solvent
Details: 283.15 K; x2 = 0.2068

Illustrative cases are given below, each with its answer.
COMPOUND: Nc1cccc(S(=O)(=O)c2cccc(N)c2)c1 + CCO + O
solubility (g/100 g solution): 0.318
//
COMPOUND: CC(C)OC(=O)C(C)NP(=O)(OCC1OC(n2ccc(=O)[nH]c2=O)C(C)(F)C1O)Oc1ccccc1 (centres undefined) + CCO + O
solubility (g/100 g solution): 7.67
//
COMPOUND: COc1cc2c(cc1OC)-c1cc3ccc(OC)c(OC)c3c[n+]1CC2.[Cl-] + CCO + O
solubility (g/100 g solution): 1.44

Q: I am curious: what solubility (g/100 g solution) value has been reported for Cc1[nH]c(=O)c(C#N)cc1-c1ccncc1 + CCO + O ?
Ans: 0.00186

---

Experiment: xn = mol fraction of the nth substance listed, in the solute-free solvent
Details: 288.15 K; x2 = 0.3
solubility (g/100 g solution) listing for selected molecules.
Reply with the value as a number alone.

MOLECULE: S=c1[nH]ncs1 + CC(C)=O + O
solubility (g/100 g solution): 15.3
//
MOLECULE: Cc1ncc(C[n+]2csc(CCO)c2C)c(N)n1.O=[N+]([O-])[O-] + O + CC(C)=O
solubility (g/100 g solution): 0.0831
//
MOLECULE: S=c1[nH]ncs1 + CCO + O
solubility (g/100 g solution): 5.7

Q: Fill blank: measured solubility (g/100 g solution) of the molecule Cc1ncc(C[n+]2csc(CCO)c2C)c(N)n1.O=[N+]([O-])[O-] + O + CO is ____.
Ans: 0.66

---

Experiment: xn = mol fraction of the nth substance listed, in the solute-free solvent
Conditions: 288.15 K; x2 = 0.03225
MEASURED QUANTITY: solubility (g/100 g solution)
# output: bare number, no unit

COMPOUND: CN1CCN(C2=Nc3cc(Cl)ccc3Nc3ccccc32)CC1 + CC(C)O + O
ASSAY VALUE: 0.0108

Q: What value of solubility (g/100 g solution) has been reported for the following compound? c1ccc2[nH]c(-c3cscn3)nc2c1 + CC(C)O + O
Ans: 0.0023

Q: Item Nc1nccnc1Cl + CC(C)O + O has what recorded solubility (g/100 g solution)?
Ans: 0.0738

Q: Look at this compound and give its reported solubility (g/100 g solution). c1ccc2[nH]c(-c3cscn3)nc2c1 + CCCO + O
Ans: 0.00407

Q: Can you look up the measured solubility (g/100 g solution) of Cc1[nH]c(=O)c(C#N)cc1-c1ccncc1 + CC(C)O + O for me?
Ans: 0.00148

Q: Look at this compound and give its reported solubility (g/100 g solution). Nc1cccc(S(=O)(=O)c2cccc(N)c2)c1 + CC(C)O + O
Ans: 0.08

---

solubility (g/100 g solution) overview
Assay: xn = mol fraction of the nth substance listed, in the solute-free solvent
Details: 308.15 K; x2 = 0.7788
# print the numeric value only

Example cases with answers are listed next.
COMPOUND: Cc1[nH]c(=O)c(C#N)cc1-c1ccncc1 + CCO + O
ASSAY VALUE: 0.0105
//
COMPOUND: Nc1cccc(S(=O)(=O)c2cccc(N)c2)c1 + CCO + O
ASSAY VALUE: 2.43
//
COMPOUND: CC(C)OC(=O)C(C)NP(=O)(OCC1OC(n2ccc(=O)[nH]c2=O)C(C)(F)C1O)Oc1ccccc1 (centres undefined) + CCO + O
ASSAY VALUE: 42.4

Now consider the entry below.
Q: # input compound: COc1cc2c(cc1OC)-c1cc3ccc(OC)c(OC)c3c[n+]1CC2.[Cl-] + CCO + O ; wanted: its solubility (g/100 g solution)
Ans: 5.41

---

Test: xn = mol fraction of the nth substance listed, in the solute-free solvent
Conditions: 323.15 K; x2 = 0.4
MEASURED QUANTITY: solubility (g/100 g solution)
Field format: numeric only.

Worked examples, 5 molecules total:
MOLECULE: CCCCCOC(=O)Nc1nc(=O)n(C2OC(C)C(O)C2O)cc1F (stereo unspecified) + CCOC(C)=O + CCCCCC
solubility (g/100 g solution): 0.448
//
MOLECULE: S=c1[nH]ncs1 + CCO + O
solubility (g/100 g solution): 26
//
MOLECULE: S=c1[nH]ncs1 + CC(C)=O + O
solubility (g/100 g solution): 38.5
//
MOLECULE: CC(N)C(=O)O (stereo unspecified) + O + CCO
solubility (g/100 g solution): 0.347
//
MOLECULE: CC(N)C(=O)O (stereo unspecified) + O + CCCO
solubility (g/100 g solution): 0.268

API: the following record is the query input.
Q: What measured solubility (g/100 g solution) goes with OCCN(CCO)c1nc(N2CCCCC2)c2nc(N(CCO)CCO)nc(N3CCCCC3)c2n1 + CCO + O ?
Ans: 22.2

---

Test: xn = mol fraction of the nth substance listed, in the solute-free solvent
Conditions: 313.15 K; x2 = 0.4117
MEASURED QUANTITY: solubility (g/100 g solution)
Enter a number only.

MOLECULE: c1ccc2[nH]c(-c3cscn3)nc2c1 + CC(C)O + O
solubility (g/100 g solution): 0.329

MOLECULE: c1ccc2[nH]c(-c3cscn3)nc2c1 + CCCO + O
solubility (g/100 g solution): 0.633

MOLECULE: Nc1cccc(S(=O)(=O)c2cccc(N)c2)c1 + CC(C)O + O
solubility (g/100 g solution): 1.65

Q: Need solubility (g/100 g solution), item CN1CCN(C2=Nc3cc(Cl)ccc3Nc3ccccc32)CC1 + CC(C)O + O
Ans: 1.69

Q: Item under review: Nc1nccnc1Cl + CC(C)O + O . Reported solubility (g/100 g solution)?
Ans: 1.42

Q: Can you share its solubility (g/100 g solution)? I mean this molecule: Cc1[nH]c(=O)c(C#N)cc1-c1ccncc1 + CC(C)O + O
Ans: 0.02

---

Test: xn = mol fraction of the nth substance listed, in the solute-free solvent
Conditions: 283.15 K; x2 = 0.1
Entry flag: met if solubility (g/100 g solution) reaches 0.07; not met if it does not.

Record excerpt, results attached:
COMPOUND: S=c1[nH]ncs1 + CCCO + O
GROUP LABEL: met
--
COMPOUND: CC(N)C(=O)O (stereo not given) + O + CO
GROUP LABEL: met
--
COMPOUND: Cc1ncc(C[n+]2csc(CCO)c2C)c(N)n1.O=[N+]([O-])[O-] + O + CO
GROUP LABEL: met
--
COMPOUND: S=c1[nH]ncs1 + CO + O
GROUP LABEL: met

Q: hey, is solubility (g/100 g solution) for this one >= 0.07? S=c1[nH]ncs1 + CCO + O
Ans: met

Q: Say whether CC(N)C(=O)O (stereo not given) + O + CCO shows solubility (g/100 g solution) of 0.07 or more.
Ans: not met

Q: Has CC(N)C(=O)O (stereo not given) + O + CC(C)O a recorded solubility (g/100 g solution) greater than or equal to 0.07?
Ans: not met

Q: Is it the case that CC(N)C(=O)O (stereo not given) + O + CCCO has solubility (g/100 g solution) reaching or exceeding 0.07?
Ans: not met

Q: Textbook exercise: given the entry CC(N)C(=O)O (stereo not given) + O + CC(C)=O , state whether its solubility (g/100 g solution) is greater than or equal to 0.07.
Ans: not met

Q: Hi team, for S=c1[nH]ncs1 + CC(C)=O + O , is the recorded solubility (g/100 g solution) at or above 0.07?
Ans: met
